Acetylcholinesterase (Homo sapiens): recorded pKi for assorted compounds
Sequence (P22303 whole entry): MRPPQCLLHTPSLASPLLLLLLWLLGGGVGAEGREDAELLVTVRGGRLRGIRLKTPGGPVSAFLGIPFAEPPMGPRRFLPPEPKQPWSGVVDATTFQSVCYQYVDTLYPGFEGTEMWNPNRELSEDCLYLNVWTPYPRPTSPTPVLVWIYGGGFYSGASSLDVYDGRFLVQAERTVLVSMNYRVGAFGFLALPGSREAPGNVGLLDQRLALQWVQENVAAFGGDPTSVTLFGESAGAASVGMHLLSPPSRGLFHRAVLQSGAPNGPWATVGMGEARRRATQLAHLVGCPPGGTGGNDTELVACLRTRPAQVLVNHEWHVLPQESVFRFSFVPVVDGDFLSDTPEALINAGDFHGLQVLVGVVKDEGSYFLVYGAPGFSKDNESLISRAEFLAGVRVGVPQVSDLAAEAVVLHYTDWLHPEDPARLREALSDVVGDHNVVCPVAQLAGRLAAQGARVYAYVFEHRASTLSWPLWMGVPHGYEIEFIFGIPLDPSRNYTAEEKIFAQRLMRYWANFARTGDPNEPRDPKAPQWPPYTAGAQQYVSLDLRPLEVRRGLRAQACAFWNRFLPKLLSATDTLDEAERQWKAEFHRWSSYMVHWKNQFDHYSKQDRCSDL
Kindly note that pKi refers to -log10 of the concentration in mol/L and answer with the value alone.

{"smiles.record": "CCOc1ccc(Cc2nc3cc(C(=O)N(CC)CC)ccc3n2CCCCCCNc2c3c(nc4ccccc24)CCCC3)cc1", "pKi": 6.69}

*Q* What value of pKi has been recorded for this entry: CCOc1ccc(Cc2nc3cc(C(=O)NCCSSCCNc4c5c(nc6ccccc46)CCCC5)ccc3n2CCC(C)C)cc1
*A* 7.55

###

Overview of reported pKi across a group of compounds:
# target: Acetylcholinesterase (Homo sapiens)
Kindly note that pKi refers to -log10 of the concentration in mol/L and answer with the value alone.

*Q* What value of pKi has been recorded for this entry: CCOc1ccc(Cc2nc3cc(C(=O)NCCSSCCNc4c5c(nc6ccccc46)CCCC5)ccc3n2CCC(C)C)cc1
*A* 7.78

*Q* Also check CCOc1ccc(Cc2nc3cc(C(=O)N(CC)CC)ccc3n2CCCCCCNc2c3c(nc4ccccc24)CCCC3)cc1
*A* 7.05

Reference source: ChEMBL document CHEMBL4354814
